Numbers sourced from ChEMBL document CHEMBL4689842.

# System: HEK-293T
# EXPERIMENT_SUMMARY: Multiplex assay against HEK293T
# Type: toxicity, cell-based
# MEASUREMENT_CONDITIONS: human, 48 h, 1 µM, compound concentration 1 uM, replicate 2
Decide using Population Apoptotic (%) alone. Strictly below 30%: T. Equal to or above 30%: F.

- COMPOUND: "CC(C)Oc1ccccc1C(=O)Nc1ccccc1C(=O)Nc1cccc(S(=O)(=O)C(F)(F)F)c1"
  TGT: "HEK-293T"
  LABEL: "T"

IN: Could you please tell me whether Population Apoptotic (%) recorded for COc1cc2ncn(-c3cc(OCc4ccccc4C(F)(F)F)c(C(N)=O)s3)c2cc1OC [GW843682X] is less than 30%?
OUT: F

IN: Could you please tell me whether Population Apoptotic (%) recorded for "CC(C)OC(=O)N1CCC(Oc2ncnc3c2cnn3-c2ccc(S(C)(=O)=O)cc2F)CC1" is less than 30%?
OUT: T

IN: Could you please tell me whether Population Apoptotic (%) recorded for CN1CCN(Cc2ccc(Nc3ncc(Cl)c(Nc4ccccc4S(=O)(=O)N(C)C)n3)cc2)CC1 [DUBERMATINIB] is less than 30%?
OUT: F

IN: Could you please tell me whether Population Apoptotic (%) recorded for Cc1cccc(CN2CCN(C(c3ccccc3)c3ccc(Cl)cc3)CC2)c1.Cl.Cl (configuration not stated) is less than 30%?
OUT: T

IN: Could you please tell me whether Population Apoptotic (%) recorded for Cc1ccc2c(c1)c1c(n2CCc2ccc(C)nc2)CCN(C)C1 [LATREPIRDINE] is less than 30%?
OUT: F

IN: Could you please tell me whether Population Apoptotic (%) recorded for "CNC(=O)Nc1ccc(-c2nc(N3CC4CCC(C3)O4)c3cnn(C4CCC5(CC4)OCCO5)c3n2)cc1" is less than 30%?
OUT: F

* * *

# Tested on: U2OS
# EXPERIMENT_SUMMARY: Incucyte cell viability with U2OS; note: filed as whole numbers so only -1 and 0 and 1 occur
# Format: toxicity, cell-based
# MEASUREMENT_CONDITIONS: human, 12 h, 10 µM, compound concentration 10 uM, replicate number 2, timepoint 12 hours
MEASUREMENT_LABEL: Growth Rate
The response must contain the number and no unit.

Example entries and their recorded answers appear below.
- MOLECULE: "S=C=Nc1cccc(NC(=S)NCCCCNC(=S)Nc2cccc(N=C=S)c2)c1"
  Growth Rate: 0
- MOLECULE: "O=c1cc(N2CCOCC2)oc2c(-c3cccc4c3sc3ccccc34)cccc12"
  Growth Rate: 1
- MOLECULE: "CC(C)(C)NC[C@H](O)COc1nsnc1N1CCOCC1 [TIMOLOL]"
  Growth Rate: 1
- MOLECULE: "Cl.Clc1cccc(COc2cncc(N3CCNCC3)n2)c1"
  Growth Rate: 1
- MOLECULE: "O=C(O)C1CN(Cc2ccc(OCc3ccc(Cl)c(Cl)c3)cc2)C1"
  Growth Rate: 0

IN: Query: Growth Rate; subject: "CC(C)OC(=O)N1CCC(Oc2ncnc3c2cnn3-c2ccc(S(C)(=O)=O)cc2F)CC1"
OUT: 0

IN: Query: Growth Rate; subject: CC(C)c1noc(N2CCC(COc3ccc(-c4ccc(S(C)(=O)=O)cc4)nc3)CC2)n1 [GSK-1292263]
OUT: 1

IN: Query: Growth Rate; subject: "O=C(O)CC/C=C\C[C@@H]1CO[C@H](c2ccccc2Cl)O[C@@H]1c1ccccc1O"
OUT: 0

IN: Query: Growth Rate; subject: COC(=O)/C=C/c1cccc(N(Cc2ccc(-c3ccc(N(C)C)cc3)cc2)C(=O)C2CCCCC2)c1 [FEXARAMINE]
OUT: 0

IN: Query: Growth Rate; subject: "CC(C)NC(=O)N1CC[C@H](NC2=Nc3cc(F)ccc3N(CC(F)F)c3ccc(Cl)cc32)C1"
OUT: 1

IN: Query: Growth Rate; subject: "O=C([O-])c1cc2ccccc2c(Cc2c(O)c(C(=O)[O-])cc3ccccc23)c1O.[Na+].[Na+]"
OUT: 1

IN: Query: Growth Rate; subject: COc1cc2ncnc(Nc3ccc(F)c(Cl)c3)c2cc1OCCCN1CCOCC1 [GEFITINIB]
OUT: 1

IN: Query: Growth Rate; subject: COc1cc2ncn(-c3cc(OCc4ccccc4C(F)(F)F)c(C(N)=O)s3)c2cc1OC [GW843682X]
OUT: 0

* * *

# System: U2OS
# EXPERIMENT_SUMMARY: Multiplex assay against U2OS
# Type: toxicity, cell-based
# MEASUREMENT_CONDITIONS: human, 24 h, 10 µM, compound concentration 10 uM, replicate 1
MEASUREMENT_LABEL: Population Mitotic Cells (%)
The response must be a number in % with no trailing unit.

- SMILES_RECORD: "COc1cc(Nc2nccc(-c3cnn4nc(OC)ccc34)n2)cc(C(F)(F)F)c1"
  EXPERIMENTAL_RESULT: 34
- SMILES_RECORD: "CCc1ccc(OCc2ccccc2C(=O)Nc2ccc3nc(C)cc(N)c3c2)cc1.Cl"
  EXPERIMENTAL_RESULT: 20
- SMILES_RECORD: "CNCc1ccccc1-c1csc([C@@H](C)Nc2nc(C)nc3cc(OC)c(OC)cc23)c1"
  EXPERIMENTAL_RESULT: 8
- SMILES_RECORD: "COc1ccc(-c2ccc3ncc4c(c3c2)n(-c2ccc(N3CCNCC3)c(C(F)(F)F)c2)c(=O)n4C)cn1.O=C(O)/C=C\\C(=O)O"
  EXPERIMENTAL_RESULT: 2
- SMILES_RECORD: "C[C@]12CC[C@@H]3c4ccc(O)cc4CC[C@H]3[C@@H]1CC[C@@H]2O"
  EXPERIMENTAL_RESULT: 78
- SMILES_RECORD: "Cc1ccc(C)c(Oc2ccncc2C(=O)N2CCN(C3CC3)c3ccccc32)c1"
  EXPERIMENTAL_RESULT: 48
- SMILES_RECORD: "O=c1cc(N2CCOCC2)oc2c(-c3cccc4c3sc3ccccc34)cccc12"
  EXPERIMENTAL_RESULT: 40

Read the next record carefully.
IN: Query: Population Mitotic Cells (%); subject: "CCCSc1nc(N[C@@H]2C[C@H]2c2ccc(F)c(F)c2)c2nnn([C@@H]3C[C@H](OCCO)[C@@H](O)[C@H]3O)c2n1"
OUT: 5

* * *

# System: HEK-293T
# EXPERIMENT_SUMMARY: Incucyte cell viability with HEK293T; note: filed as whole numbers so only -1 and 0 and 1 occur
# Assay type: toxicity, cell-based
# MEASUREMENT_CONDITIONS: human, 24 h, 10 µM, compound concentration 10 uM, replicate number 2, timepoint 24 hours
Item-by-item account of Growth Rate
The response must contain the number and no unit.

Example entries and their recorded answers appear below.
- SMILES_RECORD: "CN(C)C(=O)Cn1cc(-c2nc([C@@](C)(c3ccc(-c4cnc(N)nc4)cc3)C3CC3)no2)cn1"
  MEASUREMENT_LABEL: "Growth Rate"
  EXPERIMENTAL_RESULT: 1
- SMILES_RECORD: "C[C@H](N)COC(=O)[C@@H](CCCCN)NC(=O)Cc1c(-c2ccc3ccccc3c2)[nH]c2c1ccc1ccccc12"
  MEASUREMENT_LABEL: "Growth Rate"
  EXPERIMENTAL_RESULT: 0
- SMILES_RECORD: "Cc1cc([C@@H](C)Nc2ccccc2C(=O)O)c2nc(N3CCOCC3)cc(=O)n2c1"
  MEASUREMENT_LABEL: "Growth Rate"
  EXPERIMENTAL_RESULT: 1
- SMILES_RECORD: "COCCOc1nc(-c2ccc(Cl)nc2)nc2c1CN(C(=O)c1ncn3ccccc13)CC2"
  MEASUREMENT_LABEL: "Growth Rate"
  EXPERIMENTAL_RESULT: 0
- SMILES_RECORD: "CC(C)NC(=O)N1CC[C@H](NC2=Nc3cc(F)ccc3N(CC(F)F)c3ccc(Cl)cc32)C1"
  MEASUREMENT_LABEL: "Growth Rate"
  EXPERIMENTAL_RESULT: 0

Read the next record carefully.
IN: Query: Growth Rate; subject: "C[C@]1(C(=O)N(CCCC(=O)O)Cc2cccc(Cl)c2)CCN1C(=O)c1csc2ccccc12"
OUT: 0

* * *

# System: Fibroblast
# EXPERIMENT_SUMMARY: Multiplex assay against human fibroblast
# Format: toxicity, cell-based
# MEASUREMENT_CONDITIONS: 24 h, 10 µM, compound concentration 10 uM, replicate 1
Decide using Population Mitotic Cells (%) alone. Strictly below 40%: Condition met. Equal to or above 40%: Condition not met.

- COMPOUND: "CCc1nn(CCCN2CCN(c3cccc(Cl)c3)CC2)c(=O)n1CCOc1ccccc1.Cl [NEFAZODONE HYDROCHLORIDE]"
  LABEL: "Condition met"
- COMPOUND: "CC(C)OC(=O)N1CCC(Oc2ncnc3c2cnn3-c2ccc(S(C)(=O)=O)cc2F)CC1"
  LABEL: "Condition not met"
- COMPOUND: "Cc1ccccc1C(c1ccccc1C)N1C2CCC1CC(O)(c1ccccc1)C2 (stereo not drawn)"
  LABEL: "Condition not met"
- COMPOUND: "CC(C)CC(=O)Nc1[nH]nc2c1CN(C(=O)C1CCN(C)CC1)C2(C)C"
  LABEL: "Condition met"
- COMPOUND: "O=c1cc(N2CCOCC2)oc2c(-c3cccc4c3sc3ccccc34)cccc12"
  LABEL: "Condition met"
- COMPOUND: "C=CC(=O)Nc1ccc2[nH]c(=O)n(C3CCN(Cc4ccc(-c5nc6cc[nH]c(=O)c6cc5-c5ccccc5)cc4)CC3)c2c1"
  LABEL: "Condition not met"
- COMPOUND: "CC1=C(C(=O)Nc2cc3cn[nH]c3cc2F)C(c2ccc(C(F)(F)F)cc2)CC(=O)N1 (stereo not drawn)"
  LABEL: "Condition not met"

Now let's try a different one.
IN: Could you please tell me whether Population Mitotic Cells (%) recorded for "CC(C)Oc1ccccc1C(=O)Nc1ccccc1C(=O)Nc1cccc(S(=O)(=O)C(F)(F)F)c1" is less than 40%?
OUT: Condition met
